# Tested on: HT-22
# method-notes: Neuroprotective activity against glutamate-induced cell death in mouse HT22 cells assessed as increase in cell viability at 0.15 to 38.46 uM incubated for 12 hrs by calcein-AM dye and propidium iodide staining based analysis
# Type: functional
# measurement-conditions: dose microM 0.15-38.46, time 12.0 hrs
Active and inactive are the calls of the source. The calls are words filed in the database; no cut-off is given here.
Answer with one of the outcomes active, inactive

Example entries begin here.
                                 smiles_str  category
0  COc1ccc2c(c1)C(=O)/C(=C/c1cc(OC)c(OC)c(OC)c1)CC2    active
1      COc1cccc(/C=C2\CCc3ccc(OC)cc3C2=O)c1    active
2  COc1ccc2c(c1)C(=O)/C(=C/c1ccc(N(C)C)cc1)CC2    active
3   COc1ccc2c(c1)C(=O)/C(=C/c1cccc(O)c1)CC2  inactive

Now look at this entry.
Write down the call the test reported for this molecule. Item: "COc1ccc2c(c1)C(=O)/C(=C/c1ccc(OC)c(OC)c1)CC2" active
